system: Hep G2, epithelial liver cell line; test: Cytotoxicity assay (PrestoBlue), HepG2; settings: CC50, 72 h
ASSAY_ENDPOINT: Cytotoxicity effect (µM) Epithelial liver HepG2
Numbers only here, please. The scale is µM.

Illustrative cases are given below, each with its answer.
O=C(C1=C(O)C(=O)N(CCc2cc3ccccc3[nH]2)C1c1ccc(Cl)cc1)c1ccc(Br)cc1 (stereo not shown) [Compound 37]; 20
O=C(C1=C(O)C(=O)N(Cc2cc3cnccc3[nH]2)C1c1ccc(Cl)cc1)c1ccc(Br)cc1 (stereo not shown) [Compound 36]; 1

// switching to the query compound
Query: Consider the compound C[C@@H]1C[C@@H]([C@H](O)CC2CC(=O)NC(=O)C2)C(=O)[C@@H](C)C1 [Cycloheximide, reference compound] and give its recorded Cytotoxicity effect (µM) Epithelial liver HepG2.
Reply: 1.34
